Values compiled from PubChem BioAssay (NCI).

# Test system: SK-MEL-28 melanoma
# assay_overview: NCI tumour cell line growth inhibition, 48 h; in the data active means GI50 below about 0.43 µM; inactive means the rest
Labels: label 1 (active), label 0 (inactive)

- compound: "CN1CCN(CCCOc2ccc3nc(Nc4ccc(F)c(F)c4)ccc3c2)CC1"
  target_desc: "SK-MEL-28 melanoma"
  cat: "label 0"
- compound: "CN1CCN(C(=O)c2ccc(NC(=O)Nc3ccc(-c4nc(N5CCOCC5)c5cccn5n4)cc3)cc2)CC1"
  target_desc: "SK-MEL-28 melanoma"
  cat: "label 1"
- compound: "C=CC1C(CC2OC(CO)C(O)C(O)C2O)OC=C2C(=O)OCCC21O (stereo not drawn)"
  target_desc: "SK-MEL-28 melanoma"
  cat: "label 1"
